Ref: PubChem BioAssay (NCI)

System: OVCAR-5 ovarian
procedure_text: NCI-60 one-dose screen, 48 h
condition_notes: 10 µM unless noted
This is part of a sample that, as a whole, favours compounds with a hit. Of some 83,000 tested, about 20% had one in any assay. Activity calls are given as the source filed them. Rule for the calls: active = growth percent below 10; inactive = the rest.
Labels: y (active), n (inactive)

molecule | cat
CC(C)(C)n1cc(-c2ccnc(NCCNS(=O)(=O)c3ccc(F)cc3)c2)c(-c2cccc(O)c2)n1 | n
C=COC(=O)CCCCCCCCC | n
COc1ccc(-n2c(-c3ccccc3)c(-c3ccccc3)c3c(SCC(=O)N/N=C/c4ccc(Cl)cc4)ncnc32)cc1 | n
Cn1cc(-c2cnc3ccc(NC(=O)Nc4ccc(F)c(Br)c4)cc3n2)cn1 | n
O=[N+]([O-])c1ccc(Sc2ncccn2)c([N+](=O)[O-])c1 | n
C=C(C)[C@@H]1C[C@@H]2Cc3ccc(Cl)c(C)c3N1O2 | n
Fc1ccc(-c2nc(-c3nc4ncccc4[nH]3)cc3c2[nH]c2ccccc23)cc1F | n
NC(=O)CCCN1C/C(=C\c2ccccc2)C(=O)c2ccccc21 | n
Cc1[nH]c2ccc(F)cc2c1CCNC(=O)C1CCN(C(=O)c2ccccc2)C1 (stereo unspecified) | n
COC(=O)c1nc(-c2ccccc2)oc1S(=O)(=O)N1CCN(c2cccc(Cl)c2)CC1 | n
C=C1CCC2C3(C)COC(c4c(OC)cccc4OC)OC3CCC2(C)C1C/C=C1/C(=O)OCC1O (stereo unspecified) | n
CN(CCCCN(C[C@H]1Cc2ncccc2CN1)[C@H]1CCCc2cccnc21)C1CCC(F)(F)CC1 | n
COc1ccc(OC)c(/C=C2\Oc3cc(OCCCN4CCCC4)ccc3C2=O)c1 | n
COc1ccc(-c2c(N)n[nH]c2-c2cc3c(c(OC)c2OC)OCO3)cc1 | n
Cc1nc2ncccc2nc1Nc1ccc(S(=O)(=O)Nc2ccccn2)cc1 | n
N=C(N)c1ccc(-c2ccc(-c3ccc(-c4cccs4)s3)s2)cc1 | n
COc1ccc(-c2c(N)n[nH]c2-c2cc(OC)c(OC)c(OC)c2)cc1 | n
O=C(C1=Cc2cc3ccccc3n2Cc2cnnn21)c1ccccc1 | n
COc1ccc(/C=C2\Oc3cc(OCCCN4CCCC4)ccc3C2=O)c(OC)c1 | n
c1ccc(-c2cn(-c3ccccc3)c(-c3ccccc3)n2)cc1 | n
O=S(=O)(NCCNc1nccc(-c2c(-c3ccc(F)cc3)nc3sccn23)n1)c1ccc(F)cc1 | n
CCCCC(CC)OC(=O)C(Br)CC (stereo unspecified) | n
COc1cc(NC(N)=NCCC(C)(C)c2ccc(C(F)(F)F)cc2)ncc1C#N | n
COc1cc(-c2nn(-c3cccc(NC(=O)Nc4ccc(Cl)c(Cl)c4)c3)cc2-c2ccncc2)ccc1Cl | n
COc1cc(-c2nn(-c3cccc(NC(=O)c4ccc(N5CCOCC5)c(C(F)(F)F)c4)c3)cc2-c2ccncc2)ccc1Cl | n
CCCC(=O)Oc1ccc(/C(=C(\C)c2ccccc2)c2ccc(OCCN(CC)CC)cc2)cc1 | n
COc1ccc(/C=C2\N=C(c3ccccc3)N(C(=O)c3ccccc3O)NC2=O)cc1 | n
Cc1ccc(S(=O)(=O)NC(=O)n2cc(-c3ccncc3)c(-c3ccc(Cl)c(O)c3)n2)cc1 | n
Cc1ccc(S(=O)(=O)n2cc(C(=O)C(=O)N3CCOCC3)c3ccccc32)cc1 | n
S=C1CC(=S)NC(=S)N1 | n
S=C(S)NCCc1c[nH]c2ccccc12 | n
COc1ccc(C2=C(c3cc(OC)c(OC)c(OC)c3)C(=O)CC2)cc1 | n
CC(C)(C)OC(=O)NCCc1ccc(N=C=S)cc1 | n
C=C[C@@H]1C[C@@H]2Cc3cc(F)ccc3N1O2 | n
C=CCn1cc(-c2nc3ccccc3s2)c2cc(-c3ccc4c5c(cccc35)C(=O)N(CCN3CCNCC3)C4=O)ccc21 | n
ClC(Cl)c1nc(-c2cccnc2)n2nc(-c3ccccc3)cc2n1 | y
COc1ccncc1S(=O)(=O)NC(=O)Nc1ccc(Cl)c(Cl)c1 | n
COc1ccc(-c2nc(-c3nc4cc(C)c(C)cc4[nH]3)cc3c2[nH]c2ccccc23)cc1 | n
O=[N+]([O-])c1cc(S(=O)(=O)Oc2ccccc2)ccc1Cl | n
OC(c1cc2cc(Br)ccc2c2cc(Br)ccc12)C1CCCCN1 (stereo unspecified) | y
Cc1cc(C2=NNC(=O)Cc3cc4c(cc32)OCCO4)cc(C)c1N | n
